Assay name: Cytotoxicity against mouse RAW264.7 cells assessed as survival up to 20 ug/ml after 22 hrs by MTT assay relative to control
Type: cell-based
Condition summary: read-out: Survival
Measurement kind: viability at 22 h

Request: viability at 22 h for CCCCCCCN1C(=O)c2cc(O)cc(O)c2C1=O ?
Response: > 95%
